# System: UACC-257 melanoma
# ASSAY_COMMENT: NCI-60 one-dose screen, 48 h (100 = growth as untreated, 0 = no growth, -100 = all killed)
# STATED_CONDITIONS: 10 µM unless noted
About 83,000 compounds went through this panel and 20% of them were active in at least one assay; those are over-represented in the sample as a whole.
// boundary case: growth equal to 90% maps to FALSE; strictly smaller maps to TRUE

[
  {
    "COMPOUND": "Oc1cccc(Nc2nc(-c3ccccn3)cs2)c1",
    "ASSIGNED_CLASS": "FALSE"
  },
  {
    "COMPOUND": "Cn1c2c(cc(S(=O)(=O)c3ccccc3)c1=O)CCc1c-2cnn1-c1cccc(Cl)c1",
    "ASSIGNED_CLASS": "TRUE"
  },
  {
    "COMPOUND": "O=C1NC(=O)C2(CCCC2C(=O)O)N1 (configuration not stated)",
    "ASSIGNED_CLASS": "TRUE"
  },
  {
    "COMPOUND": "CCOC(=O)c1c(-c2cc(OC)c(OC)c(OC)c2)csc1N",
    "ASSIGNED_CLASS": "FALSE"
  }
]

Answer whether the compound COc1c(O)c2c3c(c1OC)-c1ccccc1CC3N(S(=O)(=O)c1ccc(C)cc1)CC2 (configuration not stated) has growth strictly less than 90%
TRUE

----------
# Test system: SNB-75 CNS
# ASSAY_COMMENT: NCI-60 one-dose screen, 48 h
# STATED_CONDITIONS: 10 µM unless noted
Compounds without any hit were thinned out: in the full panel of roughly 83,000, 20% have a hit. The source made the active and inactive calls. How the source made its calls: active means growth percent below 10; inactive means the rest.
Your answer must be one of the following: active, inactive

Look up the recorded call for CCCCCCCC/C=C\CCCCCCCCOc1cccc(CC(=O)NCC[N+]2(C)CCCCC2)c1 in this test.
inactive

Look up the recorded call for COC(=O)[C@@]12CC[C@@H](C)[C@]3(C[C@@H](c4ccoc4)OC3=O)[C@H]1CC[C@@H]1O[C@@]12C in this test.
inactive

----------
# System: ACHN renal
# ASSAY_COMMENT: NCI-60 one-dose screen, 48 h
# STATED_CONDITIONS: 10 µM unless noted
About 83,000 compounds went through this panel and 20% of them were active in at least one assay; those are over-represented in the sample as a whole. The source made the active and inactive calls. Rule for the calls: active = growth percent below 10; inactive = the rest.
Your answer must be one of the following: active, inactive

Example entries begin here.
[
  {
    "COMPOUND_STRUCTURE": "COc1cc(-c2nc(SC(C)C)nc(Nc3ccccc3C)c2C#N)cc(OC)c1OC",
    "ASSIGNED_CLASS": "inactive"
  },
  {
    "COMPOUND_STRUCTURE": "Cc1c(C(=O)Nc2nc(-c3ccccc3)cs2)nnn1-c1cccc2ccccc12",
    "ASSIGNED_CLASS": "inactive"
  },
  {
    "COMPOUND_STRUCTURE": "O=C1/C(=C/c2ccc(Cl)cc2)CN(Cc2cn(CCCNc3ccnc4cc(Cl)ccc34)nn2)C/C1=C\\c1ccc(Cl)cc1",
    "ASSIGNED_CLASS": "active"
  }
]

Look up the recorded call for O=S(=O)(OCCO)c1ccccc1 in this test.
inactive

Look up the recorded call for CCC(=O)Nc1nnc(Cc2ccc(OC)c(OC)c2)s1 in this test.
active

Look up the recorded call for CCCCCCCCCCCCSC1=CC(=O)C=CC1=O in this test.
inactive

Look up the recorded call for O=c1oc2ccccc2cc1-c1csc(N/N=C/c2cc3ccccc3nc2Cl)n1 in this test.
inactive

Look up the recorded call for O=C1c2[nH]cc(CN[C@@H]3CCCN3)c2C(=O)c2c1c(O)c1ccccc1c2O in this test.
active

----------
# System: MALME-3M melanoma
# ASSAY_COMMENT: NCI-60 one-dose screen, 48 h (100 = growth as untreated, 0 = no growth, -100 = all killed)
# STATED_CONDITIONS: 10 µM unless noted
The panel holds about 83,000 compounds, 20% with a hit somewhere; the sample as a whole holds those more often.
Class field: derived from growth; ranges low group: < 60%; middle group: ≥ 60% and < 90%; high group: ≥ 90%

Example entries begin here.
[
  {
    "COMPOUND": "Cc1cc(=O)[nH]n1-c1cc(Cl)ccc1N",
    "ASSIGNED_CLASS": "high group"
  },
  {
    "COMPOUND": "CN1CCc2c(Sc3ccc(C(=O)NO)cc3)c3ccccc3n2C1",
    "ASSIGNED_CLASS": "low group"
  },
  {
    "COMPOUND": "Cc1ccc(S(=O)(=O)N2C/C(=C\\c3cc(F)cc(F)c3)C(=O)/C(=C/c3cc(F)cc(F)c3)C2)cc1",
    "ASSIGNED_CLASS": "low group"
  },
  {
    "COMPOUND": "O=C1C(N2CCOCC2)=Cc2cccc3cccc1c23",
    "ASSIGNED_CLASS": "high group"
  }
]

Please classify: Fc1ccccc1Nc1ccc2nnc(-c3ccncc3)n2n1
high group

Please classify: C[C@@H](Oc1cc(-c2cnn(C3CC4(CCNCC4)C3)c2)cnc1N)c1c(F)ccc(Cl)c1Cl
low group

Please classify: CCOC(=O)c1sc(NC(=O)CN2CCC(Cc3ccccc3)CC2)nc1C
middle group

Please classify: CC1CCCCN1S(=O)(=O)c1ccc(CN=C=S)cc1 (stereo not given)
middle group

Please classify: COc1cc2nc(N3CCC[C@H](NC4=CC(=O)c5ccccc5C4=O)C3)nc(N)c2cc1OC
low group

Please classify: COc1cc(-c2nc(SC(C)C)nc(Nc3cccc(C)c3)c2C#N)cc(OC)c1OC
high group

Please classify: O=C(CCc1nnc2sc(-c3ccccc3)nn12)c1nc2ccccc2[nH]1
high group

Please classify: COc1cccc(-c2ccc3c(c2)C2CCN(Cc4ccccc4)C3C2)c1 (stereo not given)
middle group

Please classify: Cc1cccc2c(=O)c3c(sc12)c(NCCNCCO)nc1ccccc13
low group

Please classify: COc1cc2nc(SCc3cc(OC)c(OC)c(OC)c3)n(-c3ccccc3OC)c(=O)c2cc1OC
middle group

Please classify: COc1ccc(S(=O)(=O)c2ccc(C(N)=O)cc2)cc1NC(=O)c1[nH]c(C)c2c1CCCCC2=O
middle group

Please classify: COc1cccc2c(=O)c3c(sc12)c(NCCN(C)C)nc1ccccc13
low group

----------
# Tested on: LOX IMVI melanoma
# ASSAY_COMMENT: NCI-60 one-dose screen, 48 h
# STATED_CONDITIONS: 10 µM unless noted
The panel holds about 83,000 compounds, 20% with a hit somewhere; the sample as a whole holds those more often. The source made the active and inactive calls. Rule for the calls: active = growth percent below 10; inactive = the rest.
Your answer must be one of the following: active, inactive

Example entries begin here.
[
  {
    "COMPOUND": "O=c1ccc2ccccc2o1",
    "ASSIGNED_CLASS": "inactive"
  },
  {
    "COMPOUND": "O=[N+]([O-])c1ccc(O)c2ncccc12",
    "ASSIGNED_CLASS": "inactive"
  },
  {
    "COMPOUND": "O=C1OCC2=C1C(c1ccc3c(c1)OCO3)CC(=O)N2c1cccc(Cl)c1 (stereo not drawn)",
    "ASSIGNED_CLASS": "inactive"
  },
  {
    "COMPOUND": "Cc1nn2c(-c3nc4ccc(Cl)cc4[nH]3)c(-c3ccc(F)cc3)nc2s1",
    "ASSIGNED_CLASS": "inactive"
  },
  {
    "COMPOUND": "O=C(Nc1ccccc1)Oc1cccc2cccnc12",
    "ASSIGNED_CLASS": "inactive"
  }
]

Kindly review the next compound as well.
Look up the recorded call for CCOC(=O)c1c(Cl)c2c(n1Cc1ccc(OC)cc1)-c1oncc1CCC2 in this test.
inactive

----------
# System: DU-145 prostate
# ASSAY_COMMENT: NCI-60 one-dose screen, 48 h
# STATED_CONDITIONS: 10 µM unless noted
This is part of a sample that, as a whole, favours compounds with a hit. Of some 83,000 tested, about 20% had one in any assay. Calls of active or inactive are those of the source. Rule for the calls: active = growth percent below 10; inactive = the rest.
Your answer must be one of the following: active, inactive

Example entries begin here.
[
  {
    "MOLECULE": "CC1SC(c2cccc(Oc3ccccc3)c2)N(CCc2cccs2)C1=O (stereo not given)",
    "ASSIGNED_CLASS": "active"
  },
  {
    "MOLECULE": "C[C@@H](Oc1cc(-c2cnn(C3CC4(CCNCC4)C3)c2)cnc1N)c1c(F)ccc(Cl)c1Cl",
    "ASSIGNED_CLASS": "inactive"
  },
  {
    "MOLECULE": "Cc1ccc(-c2nnc(COc3ccc(-c4nnc(N)s4)cc3)o2)cc1",
    "ASSIGNED_CLASS": "inactive"
  },
  {
    "MOLECULE": "CCCCCCCCCCCCSC1=CC(=O)C=CC1=O",
    "ASSIGNED_CLASS": "inactive"
  },
  {
    "MOLECULE": "CCCCOC(=O)C1OC(Oc2ccc3c(C)cc(=O)oc3c2)[C@@H](OC(C)=O)C(OC(C)=O)C1OC(C)=O (stereo not given in full)",
    "ASSIGNED_CLASS": "inactive"
  }
]

Kindly review the next molecule as well.
Look up the recorded call for COc1cc2nc(N3CCC[C@H](NC4=CC(=O)c5ccccc5C4=O)C3)nc(N)c2cc1OC in this test.
active
